# studySystem: rat metabotropic glutamate receptor 5 (mGluR5) (Rattus norvegicus, UniProt P31424)
# Construct: expressed in transfected cells; host or cells: HEK 293
# Sequence (P31424 21-1171 isoform P31424-2 limits assumed): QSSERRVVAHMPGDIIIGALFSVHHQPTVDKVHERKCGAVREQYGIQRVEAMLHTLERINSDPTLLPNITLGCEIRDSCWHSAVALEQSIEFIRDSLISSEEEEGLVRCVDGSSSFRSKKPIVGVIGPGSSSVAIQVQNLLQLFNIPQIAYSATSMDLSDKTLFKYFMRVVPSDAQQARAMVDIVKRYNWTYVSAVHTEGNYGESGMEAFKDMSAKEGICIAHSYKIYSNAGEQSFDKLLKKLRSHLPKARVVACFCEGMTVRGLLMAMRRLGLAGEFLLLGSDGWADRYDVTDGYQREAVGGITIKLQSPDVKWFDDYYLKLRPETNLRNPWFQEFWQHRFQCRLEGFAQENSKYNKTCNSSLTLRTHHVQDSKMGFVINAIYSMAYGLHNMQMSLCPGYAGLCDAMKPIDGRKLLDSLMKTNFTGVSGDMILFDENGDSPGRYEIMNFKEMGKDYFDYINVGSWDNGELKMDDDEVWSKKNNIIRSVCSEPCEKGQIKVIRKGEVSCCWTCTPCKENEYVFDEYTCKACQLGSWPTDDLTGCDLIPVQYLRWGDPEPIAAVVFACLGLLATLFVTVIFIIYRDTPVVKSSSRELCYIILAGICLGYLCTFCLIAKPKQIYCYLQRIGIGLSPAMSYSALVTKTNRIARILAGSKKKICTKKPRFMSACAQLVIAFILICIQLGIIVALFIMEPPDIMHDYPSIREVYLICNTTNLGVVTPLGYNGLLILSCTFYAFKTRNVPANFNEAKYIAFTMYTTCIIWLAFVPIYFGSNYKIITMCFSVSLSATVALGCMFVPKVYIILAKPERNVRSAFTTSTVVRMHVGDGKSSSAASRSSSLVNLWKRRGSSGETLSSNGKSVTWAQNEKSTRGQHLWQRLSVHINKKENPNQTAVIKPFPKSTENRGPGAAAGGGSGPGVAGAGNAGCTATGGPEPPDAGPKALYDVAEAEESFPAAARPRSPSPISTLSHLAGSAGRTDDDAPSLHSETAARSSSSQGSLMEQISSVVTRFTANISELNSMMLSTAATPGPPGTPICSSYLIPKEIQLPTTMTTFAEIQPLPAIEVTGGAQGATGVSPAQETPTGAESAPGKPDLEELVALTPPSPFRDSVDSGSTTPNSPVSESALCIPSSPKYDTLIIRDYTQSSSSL
# assayProcedure: Calcium mobilization assay (FLIPR) for negative or positive allosteric activity, HEK 293 cells
# Type: cell-based
# settings: HEK293, negative allosteric modulation, inhibition of EC80 glutamate response; read-out: FLIPR maximum inhibition

[
  {
    "structureString": "Cc1ccnc(C(=O)NC23CC4CC(C2)CC(NC(=O)c2cccc(C)n2)(C4)C3)c1",
    "Emax": "63 to 99%"
  },
  {
    "structureString": "Cc1cccc(C(=O)NC23CC4CC(CC(NC(=O)c5ccc6occc6c5)(C4)C2)C3)n1",
    "Emax": "63 to 99%"
  },
  {
    "structureString": "O=C(NC12CC3CC(C1)CC(NC(=O)c1cnc4ccccc4n1)(C3)C2)c1cnc2ccccc2n1",
    "Emax": "63 to 99%"
  },
  {
    "structureString": "O=C(NC12CC3CC(C1)CC(NC(=O)c1nccs1)(C3)C2)c1ccccn1",
    "Emax": "63 to 99%"
  },
  {
    "structureString": "O=C(NC12CC3CC(C1)CC(NC(=O)C1CCC1)(C3)C2)c1ccccn1",
    "Emax": "63 to 99%"
  },
  {
    "structureString": "Cc1cncc(C(=O)NC23CC4CC(C2)CC(NC(=O)c2ncccc2C)(C4)C3)n1",
    "Emax": "63 to 99%"
  },
  {
    "structureString": "Cc1ccn2cc(C(=O)NC34CC5CC(CC(NC(=O)c6ccccn6)(C5)C3)C4)nc2c1",
    "Emax": "63 to 99%"
  },
  {
    "structureString": "Cc1cccc(C(=O)NC23CC4CC(CC(NC(=O)c5cccc(-c6ncccn6)c5)(C4)C2)C3)n1",
    "Emax": "63 to 99%"
  },
  {
    "structureString": "Cc1cncc(C(=O)NC23CC4CC(CC(NC(=O)c5cccc(OC(F)F)c5)(C4)C2)C3)n1",
    "Emax": "70 to 99%"
  },
  {
    "structureString": "COC(=O)c1cccc(C(=O)NC23CC4CC(CC(NC(=O)c5cccc(C)n5)(C4)C2)C3)n1",
    "Emax": "70 to 99%"
  },
  {
    "structureString": "N#Cc1cccc(C(=O)NC23CC4CC(C2)CC(NC(=O)c2ccccn2)(C4)C3)c1",
    "Emax": "90 to 99%"
  },
  {
    "structureString": "Cc1cncc(C(=O)NC23CC4CC(C2)CC(NC(=O)c2ncccn2)(C4)C3)n1",
    "Emax": "63 to 99%"
  },
  {
    "structureString": "Cc1cncc(C(=O)NC23CC4CC(C2)CC(NC(=O)c2cncc(C)n2)(C4)C3)n1",
    "Emax": "70 to 99%"
  },
  {
    "structureString": "Cc1cncc(C(=O)NC23CC4CC(C2)CC(NC(=O)c2cc(F)ccc2F)(C4)C3)n1",
    "Emax": "70 to 99%"
  },
  {
    "structureString": "COc1cc(C(=O)NC23CC4CC(C2)CC(NC(=O)c2cncc(C)n2)(C4)C3)ccn1",
    "Emax": "70 to 99%"
  },
  {
    "structureString": "Cc1ccc2nc(C(=O)NC34CC5CC(CC(NC(=O)c6cccc(F)c6)(C5)C3)C4)cn2c1",
    "Emax": "63 to 99%"
  }
]

All values here come from patent US8716284B2.
